For each of the compounds below, state its cell count.
# assaySummary: GPR55 agonists via beta-arrestin recruitment, primary screen, imaging, U2OS cells, beta-arrestin-GFP redistribution (AID 1961);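 note: U2OS osteosarcoma cells stably expressing GPR55 and beta-arrestin-GFP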
# conditionContext: measured here: cytotoxicity, cells analyzed, at 10 µM
Screen size: about 290,000 compounds; about 140 (0.048%) were called active. Many of the other results were omitted from the sample, so actives are more common in it than they were.
Numbers only, in cells.

Previously resolved entries follow.
CC(=O)NC1(C(F)(F)F)C(=O)N(Cc2ccccc2)C2=C1C(=O)CC(C)(C)C2 (configuration not stated): 419
Cn1c(=O)c(C(=O)COC(=O)c2cc(-c3ccco3)nc3ccccc23)c(N)n(Cc2ccccc2)c1=O: 365
O=C(O)c1cccc(CSc2nnc(-c3ccc(Cl)cc3)o2)c1: 424
CN(C)c1ccnc(Nc2ccccc2)c1C#N: 373
COc1cccc(C(=O)Nc2cnn(C(C)C)c2)c1: 253
O=C(O)c1cccc(CSc2ncn[nH]2)c1: 346
CN(C)c1ccc(/C=N/NC(=O)C2CC2c2ccccc2)cc1 (configuration not stated): 339
COc1ccc(S(=O)(=O)NCCSC(C)(C)C)cc1Cl: 346
CC(C)Cn1c(N)c(C(=O)COC(=O)c2cc(-c3ccco3)nc3ccccc23)c(=O)n(C)c1=O: 285
CCOc1ccc(C=NCC(O)c2ccccc2)cc1 (configuration not stated): 365

Report cell count for every entry below.
1. CCCCSc1nnc2n(CCc3ccccc3)c(=O)c3c4c(sc3n12)COC(C)(C)C4
2. Cn1c(=O)c(=O)n(C)c2cc(S(=O)(=O)N3CCN(c4ccccc4F)CC3)ccc21

[332, 328]

Would you mind listing cell count for each of the following compounds?
1. Cc1nnnn1/C(=C\c1ccccc1)C(=O)OCC(=O)N(C)C1CCS(=O)(=O)C1 (configuration not stated)
2. COc1cccc(CNC(=O)c2cccc(S(=O)(=O)N3CCN(C)CC3)c2)c1
3. COCc1cc(C)nc(N)c1C#N
4. COc1cc2c3nnc(-c4ccccc4)c-3cn(Cc3ccc(F)cc3)c2cc1OC

[254, 306, 359, 393]

Please indicate cell count recorded for Cc1ccc(C)c2nc3sc(C(=O)N4CCCc5ccccc54)c(N)c3cc12
369
